Reported IC50 values for a set of molecules
- EXPERIMENTAL_PROTOCOL: Cytotoxicity against C57BL/6 mouse peritoneal macrophages assessed as cell viability by lactate dehydrogenase release assay
- Format: cell-based
- MEASUREMENT_PARAMETERS: C57BL/6, Peritoneal macrophage cell
Your answer should be a plain number; it is taken to be in µg/mL.

[
  {
    "COMPOUND_STRING": "O=C(NNCc1c[nH]c2ccccc12)c1ccncc1",
    "READOUT_UNIT": "µg/mL",
    "IC50": 15
  }
]

Q. Give the measured IC50 for CCOC(=O)c1[nH]c2ccccc2c1CNNC(=O)c1cc[n+]([O-])cc1
A. 16

Q. Look up IC50 of O=C(N/N=C\c1c[nH]c2ccccc12)c1cc[n+]([O-])cc1 and report it.
A. 30

Entry source: ChEMBL document CHEMBL3751705
